TARGET ENTITY: T1, Rat IL2Rγ extracellular domain expressed with a C-terminal myc-myc-hexahistidine tag (rat)
T1 construct: whole entry is the tagged construct; also called rIL-2Rg-MMH; rat IL-2Rg-MMH
T1 chain: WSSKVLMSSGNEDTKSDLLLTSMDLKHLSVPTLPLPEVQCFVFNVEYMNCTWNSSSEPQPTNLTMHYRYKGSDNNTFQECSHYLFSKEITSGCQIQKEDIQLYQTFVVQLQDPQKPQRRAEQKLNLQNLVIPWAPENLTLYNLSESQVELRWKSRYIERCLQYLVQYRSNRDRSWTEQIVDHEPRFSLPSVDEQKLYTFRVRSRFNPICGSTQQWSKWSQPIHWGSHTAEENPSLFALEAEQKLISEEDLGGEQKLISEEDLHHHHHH
PROTOCOL TEXT: SPR Biacore 4000, anti-hFc-captured mAb, 25 C
RESULT TYPE: 100 nM Ag Bound (RU)
Give a bare numeral; the unit RU is implied.

Sample answers from the record:
// sample H4H12874P (antibody, human IgG4 S228P, kappa, V domains shown, fully human anti-IL2Rgamma mAb, human IgG4 Fc) VH: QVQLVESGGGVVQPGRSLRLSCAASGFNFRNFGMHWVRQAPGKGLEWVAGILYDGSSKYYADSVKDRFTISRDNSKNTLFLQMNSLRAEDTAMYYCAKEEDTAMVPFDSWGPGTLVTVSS VL: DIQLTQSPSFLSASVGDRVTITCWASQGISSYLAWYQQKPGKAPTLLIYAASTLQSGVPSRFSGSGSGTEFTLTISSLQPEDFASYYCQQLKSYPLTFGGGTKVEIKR , its 100 nM Ag Bound was 1

// sample H4H12886P (antibody, human IgG4 S228P, kappa, V domains shown, fully human anti-IL2Rgamma mAb, human IgG4 Fc) VH: EVQLVESGGGLVKPGGSLRLSCAASGFTFSTAWMSWVRQSPGRGLEWVGRMKSKTDGGTTFYAAPVKGRFTISRDDSKNTLYLQMNSLKTEDTAVYYCTTGLVPAFYKYYGVDVWGQGTTVTVSS VL: DIQMTQSPSSLSASVGDRITITCQASQDITNYLNWYQQKPGKAPNLLIYDASNLVTGVPSRFSGSGSGTDFTFTILSLQPEDIATYYCQQYDSLLTFGPGTKVDIKR , its 100 nM Ag Bound was 3

// sample H4H12857P (antibody, human IgG4 S228P, kappa, V domains shown, fully human anti-IL2Rgamma mAb, human IgG4 Fc; also called REGN9432) VH: EVQLVESGGGVVRPGGSLRLSCAASGFTFDDFDMSWVRQGPGKGLEWVSGINWHGSSTGYADSVKGRFTISRDNAKNSLYLQMSSLRAEDTALYHCVRGGTIVGATTPLDYWGQGTLVTVSS VL: DIQMTQSPSSLSASVGDRVTMTCRASRTISSYLSWYQQKSGKVPNLLIFGASSLQSGVPSRFSASGSGTDFTLIISSLQPEDFATYYCQQSYSSPLTFGGGTKVEIKR , its 100 nM Ag Bound was 1

Continuing:
// sample H4H12889P (antibody, human IgG4 S228P, kappa, V domains shown, fully human anti-IL2Rgamma mAb, human IgG4 Fc; also called REGN7257) VH: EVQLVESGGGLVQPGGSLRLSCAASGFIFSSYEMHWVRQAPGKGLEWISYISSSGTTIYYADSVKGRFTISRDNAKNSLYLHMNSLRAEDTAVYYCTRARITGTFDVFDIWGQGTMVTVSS VL: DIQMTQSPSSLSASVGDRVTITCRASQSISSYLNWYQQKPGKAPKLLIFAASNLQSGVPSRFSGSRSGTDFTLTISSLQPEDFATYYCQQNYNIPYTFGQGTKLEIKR , its 100 nM Ag Bound was 1

// sample H4H12899P (antibody, human IgG4 S228P, kappa, V domains shown, fully human anti-IL2Rgamma mAb, human IgG4 Fc) VH: QVQLVESGGDLVKPGGSLRLSCATSGFTFSDFYMTWIRQAPGKGLEWISYISNSGSIVKYADSVKGRFTISRDNAKNSLYLQMNSLRAEDTAIYYCARFYGDRWGQGTLVTVSS VL: DIQLTQSPSFLSASVGDRVTITCWASQGISTFLAWYQQKPGKAPKLLIYAASTLQSGVPSRFSGSGSGTDFTLTISSLQPEDFATYHCQQLNNYPWTFGQGTKVEIKR , its 100 nM Ag Bound was 39
